conditions: 298.15 K; 101.33 kPa; Liquid; Vibrating tube method
reported metric: mass density (kg/m3)
Value expressed in kg/m3; do not type the unit.

Solved entries:
CCC(O)CO (centres undefined) : 998.505
CC(O)CO (centres undefined) : 1032.55
CO : 786.585

Consider the additional molecule presented here.
Given CCCC(O)CO (centres undefined) , respond with its mass density.
966.678

FYI, the data here is from the NIST ThermoML archive (doi:10.1016/j.fluid.2015.05.016).
